- experimentalTarget: human TLR7 (Homo sapiens)
- Sequence (Q9NYK1 27-1049): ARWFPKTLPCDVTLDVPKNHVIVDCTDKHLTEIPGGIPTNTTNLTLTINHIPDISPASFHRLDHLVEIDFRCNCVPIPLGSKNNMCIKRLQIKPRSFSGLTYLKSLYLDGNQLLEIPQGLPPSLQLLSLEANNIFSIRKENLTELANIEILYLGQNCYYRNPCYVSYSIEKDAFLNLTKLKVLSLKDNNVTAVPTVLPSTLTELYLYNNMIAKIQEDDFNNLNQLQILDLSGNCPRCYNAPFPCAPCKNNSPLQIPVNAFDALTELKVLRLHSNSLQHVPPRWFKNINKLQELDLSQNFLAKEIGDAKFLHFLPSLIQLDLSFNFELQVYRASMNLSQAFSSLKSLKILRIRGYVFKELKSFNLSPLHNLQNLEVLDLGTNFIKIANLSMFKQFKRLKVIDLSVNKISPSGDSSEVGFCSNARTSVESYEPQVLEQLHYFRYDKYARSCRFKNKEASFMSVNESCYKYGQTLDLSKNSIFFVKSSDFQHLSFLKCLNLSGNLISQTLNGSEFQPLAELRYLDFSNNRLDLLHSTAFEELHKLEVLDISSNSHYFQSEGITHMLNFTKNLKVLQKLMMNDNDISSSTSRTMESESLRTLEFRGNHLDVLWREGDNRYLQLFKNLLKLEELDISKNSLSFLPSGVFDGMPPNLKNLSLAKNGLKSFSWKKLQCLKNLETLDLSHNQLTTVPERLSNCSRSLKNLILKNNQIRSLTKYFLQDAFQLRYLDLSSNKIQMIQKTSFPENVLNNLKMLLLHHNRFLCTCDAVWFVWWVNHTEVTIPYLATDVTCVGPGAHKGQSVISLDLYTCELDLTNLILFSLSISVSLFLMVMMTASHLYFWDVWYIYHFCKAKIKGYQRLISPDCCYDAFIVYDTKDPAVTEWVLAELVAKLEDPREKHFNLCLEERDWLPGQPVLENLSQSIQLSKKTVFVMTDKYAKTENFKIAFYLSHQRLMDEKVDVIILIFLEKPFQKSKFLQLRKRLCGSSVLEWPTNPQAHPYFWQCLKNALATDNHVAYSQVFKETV
- assayNotes: Agonistic activity on human TLR7 in HEK-Blue hTLR7 cell line (QUANTI-Blue reporter)
- experimentalParameters: HEK-Blue hTLR7 cells, 16-22 h incubation, absorption at 630 nm; read-out: EC50 value of the agonistic effect on human TLR7
quantityName: pEC50
Lab note: report pEC50 as minus log10 of the concentration in molar units, number only.

Consider the reported pEC50 for these molecules:
* Nc1nc2nc3c1[nH]c(=O)n3Cc1cc(c3c(c1)CCC(C(=O)O)O3)CCCCCO2 (stereo not shown) | 6.64
* Nc1nc2nc3c1[nH]c(=O)n3Cc1cc(c3c(c1)C(=O)N(CC(=O)O)C3)C/C=C\CCO2 | 8.52
* Nc1nc2nc3c1[nH]c(=O)n3Cc1cc(c3c(c1)CN(C1CCOCC1)CC3)CCCCCO2 | 7.66
* CC(C)N1CCc2c3cc(cc2C1)Cn1c(=O)[nH]c2c(N)nc(nc21)S(=O)(=O)CCCCC3 | 7.51
* Nc1nc2nc3c1[nH]c(=O)n3Cc1cc(c3c(c1)CN(C(=O)c1ccccc1)CC3)CC=CCCO2 | 7.42

Could you now consider this next molecule?
Name the reported pEC50 value associated with the molecule Nc1nc2nc3c1[nH]c(=O)n3Cc1cc(c3c(c1)CCN(C1CCC1)C3)CCCCCO2
8.22
